Molecular target: T1, human glucose-dependent insulinotropic polypeptide receptor (human, UniProt P48546 22-466)
T1 sequence (looked up): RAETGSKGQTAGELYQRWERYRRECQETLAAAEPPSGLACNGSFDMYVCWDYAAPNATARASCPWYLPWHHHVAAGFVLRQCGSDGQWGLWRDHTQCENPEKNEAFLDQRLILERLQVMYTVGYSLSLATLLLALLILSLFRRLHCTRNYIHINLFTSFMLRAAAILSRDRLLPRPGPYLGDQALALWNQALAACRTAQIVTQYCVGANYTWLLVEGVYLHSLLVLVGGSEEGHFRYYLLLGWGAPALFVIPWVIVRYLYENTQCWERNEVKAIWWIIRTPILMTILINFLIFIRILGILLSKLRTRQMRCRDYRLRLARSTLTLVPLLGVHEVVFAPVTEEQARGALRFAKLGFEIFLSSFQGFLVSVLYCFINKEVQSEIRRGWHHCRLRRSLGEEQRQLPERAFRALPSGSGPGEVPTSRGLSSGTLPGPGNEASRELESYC
Experiment: cell-based or functional assay
Where no end group is shown, it is not given here. [ ]: non-standard residue; d: D form. Aib = CC(C)(N)C(=O)O
Please use YES for hGIPR CRE Luc EC50 (pM) under 6 pM and NO for everything else, ties included.

The following binders have reported results that may help.
{"columns": ["binder", "group-label"],
 "data": [
  ["H[Aib]HGTFTSDYSILLEKQAAREFVQWLLEGGPSSGAPPPS-OH (not fully specified (residue 16); printed as H-Aib-HGTFTSDYSILLE-K[(2S)-2-amino-6-[[(2S)-2-amino-6-[[(4S)-4-carboxy-4-(17-carboxyheptadecanoylamino)butanoyl]amino]hexanoyl]amino]hexanoyl]-QAAREFVQWLLEGGPSSGAPPPS-OH) [Compound No. 54]", "NO"],
  ["H[Aib]HGTFTSDYSYYLEKQAA[Aib]EFVQWLLEGGPSSGAPPPS-NH2 (not fully specified (residue 16); printed as H-Aib-HGTFTSDYSYYLE-K[(2S)-2-amino-6-[[(2S)-2-amino-6-[[(4S)-4-carboxy-4-(17-carboxyheptadecanoylamino)butanoyl]amino]hexanoyl]amino]hexanoyl]-QAA-Aib-EFVQWLLEGGPSSGAPPPS-NH2) [Compound No. 32]", "YES"]
]}

Strictly below 6 pM in hGIPR CRE Luc EC50 (pM)? H[Aib]HGTFTSDYSILLEKKYA[Aib]EFVQWLLEGGPSSGAPPPS-NH2 (not fully specified (residue 16); printed as H-Aib-HGTFTSDYSILLE-K[(2S)-2-amino-6-[[(2S)-2-amino-6-[[(4S)-4-carboxy-4-(19-carboxynonadecanoylamino)butanoyl]amino]hexanoyl]amino]hexanoyl]-KYA-Aib-EFVQWLLEGGPSSGAPPPS-NH2) [Compound No. 41]
NO

H[Aib]HGTFTSDYSIYLEKQKA[Aib]EFVQWLLEGGPSSGAPPPS-NH2 (not fully specified (residue 16); printed as H-Aib-HGTFTSDYSIYLE-K[(2S)-2-amino-6-[[(2S)-2-amino-6-[[(4S)-4-carboxy-4-(19-carboxynonadecanoylamino)butanoyl]amino]hexanoyl]amino]hexanoyl]-QKA-Aib-EFVQWLLEGGPSSGAPPPS-NH2) [Compound No. 35] ?
NO
